Target: hNurr1_RXRαFL (NURR1/RXRα heterodimer) (Homo sapiens, UniProt P19793+P43354)
Sequence (P19793 whole entry, the tested form may be a part): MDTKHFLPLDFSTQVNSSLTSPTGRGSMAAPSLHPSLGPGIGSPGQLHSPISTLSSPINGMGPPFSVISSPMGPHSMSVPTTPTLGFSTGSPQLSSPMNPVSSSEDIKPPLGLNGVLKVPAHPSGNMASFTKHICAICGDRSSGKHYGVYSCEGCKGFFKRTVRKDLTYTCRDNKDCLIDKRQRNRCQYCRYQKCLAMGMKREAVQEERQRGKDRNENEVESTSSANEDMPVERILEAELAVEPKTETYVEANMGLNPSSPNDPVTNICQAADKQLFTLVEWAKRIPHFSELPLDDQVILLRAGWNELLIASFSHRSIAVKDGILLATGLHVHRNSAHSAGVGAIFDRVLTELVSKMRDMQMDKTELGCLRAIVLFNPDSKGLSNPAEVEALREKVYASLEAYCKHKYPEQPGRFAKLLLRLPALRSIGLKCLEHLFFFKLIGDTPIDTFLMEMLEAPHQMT
Sequence (P43354 328-598): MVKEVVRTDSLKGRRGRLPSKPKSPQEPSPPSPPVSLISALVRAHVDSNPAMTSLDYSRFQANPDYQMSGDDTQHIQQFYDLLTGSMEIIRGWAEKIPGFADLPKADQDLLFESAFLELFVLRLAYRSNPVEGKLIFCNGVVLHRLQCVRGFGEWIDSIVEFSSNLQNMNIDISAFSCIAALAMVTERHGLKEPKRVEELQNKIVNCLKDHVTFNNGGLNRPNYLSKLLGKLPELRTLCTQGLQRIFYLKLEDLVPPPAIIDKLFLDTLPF
Experiment: Transactivation assay in Cos-7 cells, NURR-1-Gal4 / RXRα, luciferase reporter
Assay type: cell-based
Conditions: COS-7, read-out: hNurr1_RXRαFL Eff (%), efficacy in % relative to the reference XCT0135908 at 2·10^−5 M (=100%)
Note that class boundaries on Emax are low range (below 50%), mid range (50% to below 70%), high range (70% or more)

{"smi": "Cc1ccc2c(c1)cc(Cc1ccc(C(=O)O)cc1)n2S(=O)(=O)c1cccc(C(C)(C)C)c1", "label.class": "high range"}
{"smi": "O=C(O)c1ccc(Cc2cc3cc(Cl)ccc3n2S(=O)(=O)c2ccc(F)cc2)cc1", "label.class": "low range"}
{"smi": "Cc1c(Cc2cccc(C(=O)O)c2)n(S(=O)(=O)c2cccc(C(C)(C)C)c2)c2ccc(C(F)(F)F)cc12", "label.class": "high range"}
{"smi": "CC(C)(C)c1cccc(S(=O)(=O)n2c(Cc3ccc(C(=O)O)c(F)c3)cc3cc(C(F)(F)F)ccc32)c1", "label.class": "mid range"}
{"smi": "COc1cc(Cc2cc3cc(Cl)ccc3n2S(=O)(=O)c2ccc(C(C)C)cc2)ccc1C(=O)O", "label.class": "mid range"}
{"smi": "O=C(O)c1ccc(Cc2cc3cc(C(F)(F)F)ccc3n2S(=O)(=O)c2ccc3c(c2)OCCO3)cc1", "label.class": "low range"}
{"smi": "CC(C)c1ccc(S(=O)(=O)n2c(Cc3ccc(C(=O)O)cc3)cc3cc(C(F)(F)F)ccc32)cc1", "label.class": "high range"}
{"smi": "O=C(O)c1ccc(Cc2cc3cc(Cl)ccc3n2S(=O)(=O)c2cc3ccccc3o2)cc1", "label.class": "low range"}
{"smi": "COC(=O)c1ccc(Cc2cc3cccc(F)c3n2S(=O)(=O)c2cccc(C(C)(C)C)c2)cc1", "label.class": "high range"}
{"smi": "CC(C)Oc1ccc(S(=O)(=O)n2c(Cc3ccc(C(=O)O)cc3)cc3cc(Cl)ccc32)cc1", "label.class": "mid range"}
{"smi": "O=C(O)c1ccc(Cc2cc3cc(C(F)(F)F)ccc3n2S(=O)(=O)c2ccc(F)cc2)cc1", "label.class": "low range"}
{"smi": "O=C(O)c1cncc(Cc2cc3cc(Cl)ccc3n2S(=O)(=O)c2ccc3c(c2)OCCO3)c1", "label.class": "low range"}
{"smi": "CS(=O)(=O)n1c(Cc2ccc(C(=O)O)cc2)cc2cc(Cl)ccc21", "label.class": "high range"}
{"smi": "CC(C)(C)c1cccc(S(=O)(=O)n2c(Cc3cc(F)cc(C(=O)O)c3)cc3cc(C(F)(F)F)ccc32)c1", "label.class": "high range"}
{"smi": "CCCCCc1ccc(S(=O)(=O)n2c(Cc3ccc(C(=O)O)cc3)cc3cc(C(F)(F)F)ccc32)cc1", "label.class": "low range"}
{"smi": "CC(C)c1cccc(S(=O)(=O)n2c(Cc3ccc(C(=O)O)cc3)cc3cc(Cl)ccc32)c1", "label.class": "high range"}
{"smi": "O=C(O)c1ccc(Cc2cc3cc(Cl)ccc3n2S(=O)(=O)c2cccc(Cl)c2)cc1", "label.class": "mid range"}
{"smi": "CC1(C)CCc2ccc(S(=O)(=O)n3c(Cc4ccc(C(=O)O)cc4)cc4cc(Cl)ccc43)cc2O1", "label.class": "high range"}
{"smi": "CCCc1ccc(S(=O)(=O)n2c(Cc3ccc(C(=O)O)cc3)cc3cc(C(F)(F)F)ccc32)cc1", "label.class": "low range"}
{"smi": "CCS(=O)(=O)n1c(Cc2ccc(C(=O)O)cc2)cc2cc(Cl)ccc21", "label.class": "low range"}
{"smi": "Cc1c(Cc2nc(C(=O)O)cs2)n(S(=O)(=O)c2cccc(C(C)(C)C)c2)c2ccc(C(F)(F)F)cc12", "label.class": "mid range"}
{"smi": "Cc1cc(S(=O)(=O)n2c(Cc3ccc(C(=O)O)cc3)cc3cc(C(F)(F)F)ccc32)ccc1Cl", "label.class": "mid range"}
{"smi": "Cn1ccc(-c2cccc(S(=O)(=O)n3c(Cc4ccc(C(=O)O)cc4)cc4cc(C(F)(F)F)ccc43)c2)n1", "label.class": "mid range"}
{"smi": "CC(C)COc1ccc(S(=O)(=O)n2c(Cc3ccc(C(=O)O)cc3)cc3cc(C(F)(F)F)ccc32)cc1", "label.class": "low range"}
{"smi": "COC(=O)c1ccc(Cc2cc3cc(C(F)(F)F)ccc3n2S(=O)(=O)c2ccc(C(C)C)cc2)cc1F", "label.class": "mid range"}
{"smi": "O=C(O)c1ccc(Cc2cc3cc(C(F)(F)F)ccc3n2S(=O)(=O)c2ccc3ccccc3c2)cc1", "label.class": "low range"}
{"smi": "O=C(O)c1ccc(Cc2cc3cc(Cl)ccc3n2S(=O)(=O)c2ccc(F)c(Cl)c2)cc1", "label.class": "high range"}
